- ASSAY_TARGET: tissue plasminogen activator (t-PA) (human, UniProt P00750 36-562, limits assumed)
- Sequence (P00750 36-562 limits assumed): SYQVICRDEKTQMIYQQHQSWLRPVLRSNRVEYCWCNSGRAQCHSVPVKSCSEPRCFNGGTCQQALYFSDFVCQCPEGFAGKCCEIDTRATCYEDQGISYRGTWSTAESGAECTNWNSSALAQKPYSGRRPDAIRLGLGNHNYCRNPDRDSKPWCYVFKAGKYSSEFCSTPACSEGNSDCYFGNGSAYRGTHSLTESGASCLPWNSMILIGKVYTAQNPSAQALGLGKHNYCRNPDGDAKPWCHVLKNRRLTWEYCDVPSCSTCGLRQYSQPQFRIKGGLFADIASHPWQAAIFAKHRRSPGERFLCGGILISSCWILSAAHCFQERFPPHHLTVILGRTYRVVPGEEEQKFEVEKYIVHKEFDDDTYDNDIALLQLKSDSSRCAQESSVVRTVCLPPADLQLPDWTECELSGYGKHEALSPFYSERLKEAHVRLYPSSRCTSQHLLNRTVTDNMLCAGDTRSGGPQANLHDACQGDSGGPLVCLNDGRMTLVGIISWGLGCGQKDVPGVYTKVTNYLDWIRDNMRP
- ASSAY: cell-based or functional assay
acyl = not defined here
Would you mind telling me the reported t-PA:u-PA Selectivity of each entry?
Answers are plain numbers.

[
  {
    "BINDER": "LGGRGRSANAILE [peptide LGGRGRSANAILE]",
    "VALUE_MEASURED": 5.2
  },
  {
    "BINDER": "LGGSGHYGRSGLE [peptide (IV) of Table 1, LGGSGHYGRSGLE]",
    "VALUE_MEASURED": 21
  },
  {
    "BINDER": "acyl-SGKS-NH2 (reading uncertain; also: acylated at the amino terminus (acyl group not given here)) [peptide SGKS]",
    "VALUE_MEASURED": 0.04
  },
  {
    "BINDER": "acyl-GSGKS-NH2 (reading uncertain; also: acylated at the amino terminus (acyl group not given here)) [peptide GSGKS]",
    "VALUE_MEASURED": 0.008
  },
  {
    "BINDER": "acyl-FRGRK-NH2 (reading uncertain; also: acylated at the amino terminus (acyl group not given here)) [peptide (VII) of Table 1, FRGRK]",
    "VALUE_MEASURED": 78
  }
]

Please state, for each entry, its recorded t-PA:u-PA Selectivity.
1. acyl-SGRSA-NH2 (reading uncertain; also: acylated at the amino terminus (acyl group not given here)) [peptide SGRSA]
2. LGGYGRSANAILE [peptide LGGYGRSANAILE]
3. LGGSGRNAQVRLE [peptide LGGSGRNAQVRLE]
4. LGGSGQRGRKALE [peptide (II) of Table 1, LGGSGQRGRKALE]
5. LGGSGRKASLSLE [peptide LGGSGRKASLSLE]
6. LGGSGRSATRDLE [peptide LGGSGRSATRDLE]
7. LGGSGERARGALE [peptide (III) of Table 1, LGGSGERARGALE]

Completion:
1. 0.05
2. 5.7
3. 0.011
4. 47
5. 0.032
6. 0.06
7. 13
